FYI, the data here is from ChEMBL document CHEMBL1157217.

System: A549
Assay: Cytotoxicity against human A549 cells by SRB assay
Format: functional, cell-based
Give pIC50 for every item shown.
Notebook: values listed as pIC50 are -log10 of the concentration (mol/L).

Q) Would you kindly share the measured pIC50 for `C/C=C1/CN2CC[C@]34C(=C(C(=O)OC)[C@H]1C[C@H]23)Nc1ccccc14` ?
A) 4.82

Q) Would you kindly share the measured pIC50 for `COC(=O)C1=C2Nc3c(OC)cccc3[C@@]23CCN2C[C@@H]([C@H](C)O)[C@@H]1C[C@H]23` ?
A) 4.94
